The reported measurements were obtained from patent EP0864571A1.

- Tested on: superior mesenteric artery
- test summary: Vascular smooth muscle relaxing activity (potassium chloride-contracted helical artery preparation)
- Design: species or system rabbit
- condition parameters: Oryctolagus cuniculus; rabbit superior mesenteric artery contracted with potassium chloride; concentration for 50% relaxation; read-out: Vascular smooth muscle relaxing activity (ED50)
quantity: EC50 (nM)
Answer format: numeric, nM implied, no suffix.

Exam item: Entry CCOC(=O)C1=CC2(CC)CCCN3CCc4c(n1c1cc(NS(=O)(=O)c5ccc(Br)cc5)ccc41)C32 (centres unmarked) needs its EC50 filled in; supply it.
Marked response: 1000

Exam item: Specify EC50 for CCOC(=O)C1=CC2(CC)CCCN3CCc4c(n1c1cc(NS(=O)(=O)c5ccc(OC)cc5[N+](=O)[O-])ccc41)C32 (centres unmarked) and stop.
Marked response: 2100

Exam item: State, in one line, measured EC50 of CCOC(=O)C1=CC2(CC)CCCN3CCc4c(n1c1cc(NS(=O)(=O)c5cc(C)ccc5C)ccc41)C32 (centres unmarked)
Marked response: 710

Exam item: Identify measured EC50 corresponding to CCCOC(=O)C1=CC2(CC)CCCN3CCc4c(n1c1cc(NS(=O)(=O)c5ccc(Cl)cc5)ccc41)C32 (centres unmarked)
Marked response: 1300

Exam item: Read the entry CCC12C=C(C(=O)OC(C)C)n3c4c(c5ccc(NS(=O)(=O)c6ccc(Cl)cc6)cc53)CCN(CCC1)C42 (centres unmarked) and write its reported EC50.
Marked response: 1300

====

- test summary: Acute toxicity (single intravenous shot, approximate LD50)
- condition parameters: mouse, in vivo, male S1C:ICR mice, single shot into caudal vein
Measured LD50 values are reported for all entries that follow.

Worked cases, LD50 given:
molecule="CCOC(=O)C1=CC2(CC)CCCN3CCc4c(n1c1cc(NS(=O)(=O)c5c(C)cc(C)cc5C)ccc41)C32 (stereo not shown)" quantity=LD50 measured_value="50 mg/kg"
molecule="CCOC(=O)C1=CC2(CC)CCCN3CCc4c(n1c1ccccc41)C32 (stereo not shown) [Vinpocetine phosphate, vinpocetine phosphate, reference compound]" quantity=LD50 measured_value="60 mg/kg"

Exam item: Provide only the value of recorded LD50 for CCOC(=O)C1=CC2(CC)CCCN3CCc4c(n1c1cc(NS(=O)(=O)c5ccc(C)cc5)ccc41)C32 (stereo not shown)
Marked response: 125 mg/kg

Exam item: Quick one: give measured LD50 for CCOC(=O)C1=CC2(CC)CCCN3CCc4c(n1c1cc(NS(=O)(=O)c5ccccc5)ccc41)C32 (stereo not shown)
Marked response: 85 mg/kg

====

Reported pEC50 values for the following compounds.
- System: superior mesenteric artery
- test summary: Vascular smooth muscle relaxing activity (potassium chloride-contracted helical artery preparation)
- Design: species or system rabbit
- condition parameters: Oryctolagus cuniculus, read-out: Vascular smooth muscle relaxing activity (ED50)
Lab note — pEC50 values are minus log10 of concentrations in M.

compound="CCOC(=O)C1=CC2(CC)CCCN3CCc4c(n1c1cc(NS(=O)(=O)c5ccc(C)cc5)ccc41)C32 (centres unmarked) [Compound 11]" measured_target="superior mesenteric artery" measured_value=6.00

Exam item: Quickly give me recorded pEC50 for CCOC(=O)C1=CC2(CC)CCCN3CCc4c(n1c1cc(NS(=O)(=O)c5cccc([N+](=O)[O-])c5)ccc41)C32 (centres unmarked) [Compound 24]
Marked response: 6.70

====

- System: platelet-rich plasma (PRP)
- test summary: Platelet aggregation inhibition test (ex vivo PRP after oral administration)
- Assay type: in vivo
- condition parameters: guinea pigs, oral 100 mg/kg, blood one hour after administration, collagen (2.5 µg/mg)
quantity: Platelet aggregation inhibition rate (%) Collagen
Response body: numeric value in %, unit text excluded.

compound="O=C1CCc2cc(OCCCCc3nnnn3C3CCCCC3)ccc2N1 [Cilostazol, reference compound]" measured_value=12.4
compound="CCOC(=O)C1=CC2(CC)CCCN3CCc4c(n1c1cc(NS(=O)(=O)c5ccccc5)ccc41)C32 (stereo not shown)" measured_value=85.4
compound="CCOC(=O)C1=CC2(CC)CCCN3CCc4c(n1c1cc(NS(=O)(=O)c5c(C)cc(C)cc5C)ccc41)C32 (stereo not shown)" measured_value=13.0

API: the following record is the query input.
Exam item: Respond only with Platelet aggregation inhibition rate (%) Collagen recorded for CCOC(=O)C1=CC2(CC)CCCN3CCc4c(n1c1cc(NS(=O)(=O)c5ccc(C)cc5)ccc41)C32 (stereo not shown)
Marked response: 49.1

====

- System: superior mesenteric artery
- test summary: Vascular smooth muscle relaxing activity (potassium chloride-contracted helical artery preparation)
- Set-up: species or system rabbit
- condition parameters: Oryctolagus cuniculus; rabbit superior mesenteric artery contracted with potassium chloride; concentration for 50% relaxation; read-out: Vascular smooth muscle relaxing activity (ED50)
quantity: EC50 (nM)
Answer in nM, number only, no unit symbol.

compound="CCC12C=C(C(=O)OC)n3c4c(c5ccc(NS(=O)(=O)c6ccccc6)cc53)CCN(CCC1)C42 (centres unmarked)" measured_target="superior mesenteric artery" quantity=EC50 measured_value=2100
compound="CCOC(=O)C1=CC2(CC)CCCN3CCc4c(n1c1cc(NS(=O)(=O)c5cc(Cl)ccc5Cl)ccc41)C32 (centres unmarked)" measured_target="superior mesenteric artery" quantity=EC50 measured_value=900
compound="CCOC(=O)C1=CC2(CC)CCCN3CCc4c(n1c1cc(NS(=O)(=O)c5ccc(F)cc5)ccc41)C32 (centres unmarked)" measured_target="superior mesenteric artery" quantity=EC50 measured_value=2000

Exam item: Give reported EC50 value for CCC12C=C(C(=O)OC)n3c4c(c5ccc(NS(=O)(=O)c6ccc(Cl)cc6)cc53)CCN(CCC1)C42 (centres unmarked)
Marked response: 1700

Exam item: Let me know recorded EC50 for CCOC(=O)C1=CC2(CC)CCCN3CCc4c(n1c1cc(NS(=O)(=O)c5cccc6ccccc56)ccc41)C32 (centres unmarked) , thanks.
Marked response: 2000

Exam item: Return value of EC50 for input CCOC(=O)C1=CC2(CC)CCCN3CCc4c(n1c1cc(NS(=O)(=O)c5cccc6cccnc56)ccc41)C32 (centres unmarked) , no commentary.
Marked response: 500

Exam item: Entry CCOC(=O)C1=CC2(CC)CCCN3CCc4c(n1c1cc(NS(=O)(=O)Cc5ccccc5)ccc41)C32 (centres unmarked) needs its EC50 filled in; supply it.
Marked response: 300

Exam item: Please supply the value of reported EC50 for the item CCOC(=O)C1=CC2(CC)CCCN3CCc4c(n1c1cc(NS(=O)(=O)c5c(F)c(F)c(F)c(F)c5F)ccc41)C32 (centres unmarked)
Marked response: 1200

Exam item: Write down EC50 measured for item CCOC(=O)C1=CC2(CC)CCCN3CCc4c(n1c1cc(NS(=O)(=O)c5ccccc5C(=O)OC)ccc41)C32 (centres unmarked)
Marked response: 200

Exam item: Indicate the recorded EC50 value for this compound: CCOC(=O)C1=CC2(CC)CCCN3CCc4c(n1c1cc(NS(=O)(=O)c5ccc(I)cc5)ccc41)C32 (centres unmarked)
Marked response: 1300

Exam item: Please give the documented EC50 of CCOC(=O)C1=CC2(CC)CCCN3CCc4c(n1c1cc(NS(=O)(=O)c5cccs5)ccc41)C32 (centres unmarked)
Marked response: 630

Exam item: Complete the entry with EC50 for CCOC(=O)C1=CC2(CC)CCCN3CCc4c(n1c1cc(NS(=O)(=O)c5ccc(NC(C)=O)cc5)ccc41)C32 (centres unmarked)
Marked response: 1200

Exam item: Fill in reported EC50 for this entry: CCOC(=O)C1=CC2(CC)CCCN3CCc4c(n1c1cc(NS(=O)(=O)c5ccc(OC)cc5)ccc41)C32 (centres unmarked)
Marked response: 700

Exam item: State its EC50 for this compound: CCOC(=O)C1=CC2(CC)CCCN3CCc4c(n1c1cc(NS(=O)(=O)c5ccc6ccccc6c5)ccc41)C32 (centres unmarked)
Marked response: 860
